Assay: Drying behaviour of crystallisates in dependence on residual moisture and product purity (tempering in sealed vials, visual points classification)
Format: physicochemical
Parameters: key: 5 points=sample unchanged; 4 points=sample compacted/started to dissolve; 3 points=sample visibly started to dissolve; 2 points=sample cloudy highly viscous solution; 1 point=sample dissolved to clear solution
Details: Temperature 85 °C, test duration 5 h, sealed vial, shaken
READOUT KIND: Visual classification at the end of the tempering step (points system)
The answer should be written as a number, with no unit following it.

# count of solved cases: 8
Query: Visual classification at the end of the tempering step (points system) lookup needed for O=P(O)(O)CN(CCN(CP(=O)(O)O)CP(=O)(O)O)CCN(CP(=O)(O)O)CP(=O)(O)O [unwashed quality 19 [% by mass] residual moisture] , thanks.
Result: 2

Query: Follow-up entry: O=P(O)(O)CN(CCN(CP(=O)(O)O)CP(=O)(O)O)CCN(CP(=O)(O)O)CP(=O)(O)O [unwashed quality 51 [% by mass] residual moisture]
Result: 1

Query: Follow-up entry: O=P(O)(O)CN(CCN(CP(=O)(O)O)CP(=O)(O)O)CCN(CP(=O)(O)O)CP(=O)(O)O [unwashed quality 36 [% by mass] residual moisture]
Result: 1

Query: Follow-up entry: O=P(O)(O)CN(CCN(CP(=O)(O)O)CP(=O)(O)O)CCN(CP(=O)(O)O)CP(=O)(O)O [unwashed quality 24 [% by mass] residual moisture]
Result: 1

Query: Follow-up entry: O=P(O)(O)CN(CCN(CP(=O)(O)O)CP(=O)(O)O)CCN(CP(=O)(O)O)CP(=O)(O)O [washed quality 11 [% by mass] residual moisture]
Result: 5

Query: Follow-up entry: O=P(O)(O)CN(CCN(CP(=O)(O)O)CP(=O)(O)O)CCN(CP(=O)(O)O)CP(=O)(O)O [unwashed quality 31 [% by mass] residual moisture]
Result: 1

Query: Follow-up entry: O=P(O)(O)CN(CCN(CP(=O)(O)O)CP(=O)(O)O)CCN(CP(=O)(O)O)CP(=O)(O)O [unwashed quality 40 [% by mass] residual moisture]
Result: 1

Query: Follow-up entry: O=P(O)(O)CN(CCN(CP(=O)(O)O)CP(=O)(O)O)CCN(CP(=O)(O)O)CP(=O)(O)O [unwashed quality 47 [% by mass] residual moisture]
Result: 1

New cases:
Query: Visual classification at the end of the tempering step (points system) lookup needed for O=P(O)(O)CN(CCN(CP(=O)(O)O)CP(=O)(O)O)CCN(CP(=O)(O)O)CP(=O)(O)O [washed quality 53 [% by mass] residual moisture] , thanks.
Result: 1
